The origin of these recorded values is the supplement of paper PMC10567573.

B1: GAGE1 (parent)
chain: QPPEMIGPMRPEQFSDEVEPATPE

Variants of: B1
EXPERIMENT_NOTES: protein stability index of a GFP-peptide fusion (GPS, HEK-293T) (PSI 1-6); higher = more stable;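 further: lentivirally expressed fusions sorted by FACS into six bins by GFP to DsRed ratio, PSI derived from sequencing read proportions per bin multiplied by bin number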
STATED_CONDITIONS: c terminus: a fixed tail appended
# protein stability index annotations
Please state the value as a number alone, without comment.

Please review the entries below; each comes with its answer.
QPPEMIGPMRPEQFSDEVEPATRE [P23R]: 5.3
CPPEMIGPMRPEQFSDEVEPATPE [Q1C]: 5.33
QPPEMIGPMPPEQFSDEVEPATPE [R10P]: 5.78
QPPEMIGPMRPEQMSDEVEPATPE [F14M]: 5.57
QFPEMIGPMRPEQFSDEVEPATPE [P2F]: 5.11

Read the next record carefully.
Would you kindly share the measured protein stability index for QPPEMIGPMRPEQFSDEVEPATAE [P23A] ? 5.02
